# Measured Target: Concanavalin-A (Canavalia ensiformis)
# Assay Explanation: compounds binding concanavalin A lectin – biochemical, small-molecule microarray, Alexa647 label, 635 nm, artefact control for SMM control protein annotation, primary screen (AID 1127);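 further: z combines 667 nm emission intensity with signal-to-noise across three replicate slides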
# Assay Setup: ConA-A647 binding fluorescence, higher = more signal
Value Type: composite z-score

Cc1ccc(S[C@]2(C(=O)NC(C)C)CC(=O)N(Cc3cc(C(F)(F)F)cc(C(F)(F)F)c3)[C@@H]2c2ccc(CO)cc2)cc1	-0.534
CCCC=C(CCC)[C@@H](NC(=O)C(C)(C)C)c1ccc(C(=O)OC)cc1	0.869
[N-]=[N+]=Nc1ccccc1C[C@]1(C(=O)NCCN2CCOCC2)COC(c2ccc(OCCCO)cc2)=N1	1.1
C=C(COC)C(=O)CC[C@@H](OC(C)=O)c1cccc(OCCO)c1	-0.797
C=C(/C(=C/C[C@H](OC(=O)c1ccncc1)c1ccc(CO)o1)c1cnc2ccccc2c1)C(C)C	1.11
Oc1ccc2cc[n+](Cc3cc4c(cc3Br)OCO4)cc2c1	-0.985

Entry C=CCC(OC(C)=O)[C@@H]1[C@@H](N(Cc2ccc(-c3cccc(C(F)(F)F)c3)o2)C(=O)c2ccc(-c3ccccc3)cc2)c2cc(OCCCO)ccc2N1C(=O)Cc1ccc2ccccc2c1 (some centres undefined) , tested on Concanavalin-A (Canavalia ensiformis), has a reported composite z-score of -0.0333

Entry COCCOC(=O)N1C(=O)[C@@]2(c3cc(C#CC4(O)CCCCCC4)ccc31)[C@H](C(=O)N1CCc3cc(OC)c(OC)cc3C1)[C@H]1C(=O)O[C@H](c3ccccc3)[C@H](c3ccccc3)N1[C@@H]2c1ccc(OCCO)cc1 , tested on Concanavalin-A (Canavalia ensiformis), has a reported composite z-score of 1.12

----------
# Test system: Sonic hedgehog protein (Shh)
# Assay Explanation: Sonic hedgehog microarray binding compounds – biochemical, small-molecule microarray, 635/667 nm fluorescence, primary screen (AID 1151);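 further: Shh protein binding to compounds spotted on small-molecule microarray slides; score combines spot fluorescence intensity with signal-to-noise across triplicate slides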
# Assay Setup: 635 nm fluorescence, higher = more signal
Value Type: composite z-score
Hey, just send me the number, nothing else.

Examples from the recorded data:
CCOC(=O)C[C@H]1[C@H](OC(=O)c2ccc(-c3ccccc3)cc2)[C@@H](NC(=O)CC(C)C)c2cc(OCCCO)ccc2N1C(=O)c1ccc2ccccc2n1	0.637
C=CCC(OC(C)=O)[C@@H]1[C@@H](N(Cc2ccc(-c3cccc(C(F)(F)F)c3)o2)C(=O)Cc2ccc(OC)cc2)c2cc(OCCCO)ccc2N1C(=O)c1ccc(-c2ccccc2)cc1 (some centres not stated)	0.439
C=C[C@@H](OC)[C@H](OC(=O)Nc1ccc(OC)cc1)c1ccc(O)c(F)c1	1.96

Entry CC[C@@H]1C=C(C(=O)O)[C@H](c2ccccc2)N1S(=O)(=O)c1ccc(C)cc1 — recorded composite z-score = -0.313

Entry CCOC(=O)[C@@H]1CCCCN1C(=O)C(=O)OC — recorded composite z-score = 0.901

Entry CC(C)[Si](C#C[Si](C(C)C)(C(C)C)C(C)C)(O[C@H](c1ccccc1)c1cn(Cc2ccccc2)nn1)C(C)C — recorded composite z-score = 0.558

Entry COc1ccc([Si](C)(C)[C@@H]2[C@@H](CC(=O)N(CCO)Cc3ccccc3)O[C@]3(C(=O)N(Cc4cccc(N5CCCCC5=O)c4)c4ccccc43)[C@H]2C)cc1 — recorded composite z-score = 2.06

Entry CC(C)N1C(=O)c2ccccc2[C@@H](C(=O)NCCN2CCOCC2)[C@@H]1c1ccc(CO)cc1 — recorded composite z-score = -1.49
